Tested on: Vero E6
Assay: cell viability relative to DMSO; higher = less toxic
Conditions: 72 h; 1 nM
# reported cell viability; entries follow
Answer with a number only, understood to be in %.

Would you please look over these solved cases?
CCCCc1cc2ccccc2c(OCCN(C)C)n1 | 106
NNC(=O)c1ccncc1 | 97.8

Now examine the next entry.
Task item: Endpoint output: cell viability of "Oc1nc(O)c2nc(O)[nH]c2n1" . Value?
Reply: 98

====

Tested on: U2OS
Assay: drug sensitivity score (DSS) for viability; higher = more toxic; extreme values may be limits of the assay
Details: 72 h
readout: drug sensitivity score
Simply state the number, no unit and no words.

Would you please look over these solved cases?
CS(=O)(=O)c1ccc(Cn2c3c(c4cc(F)cc(F)c42)CCCC3CC(=O)O)cc1 (centres undefined) | 0
Cn1cc(C(=O)c2cccc3ccccc23)cc1C(=O)O | 0
Cn1c(NCCN(CCO)CCCc2ccc([N+](=O)[O-])cc2)cc(=O)n(C)c1=O | 0

Task item: Endpoint output: drug sensitivity score of "FC(F)(F)c1ccc(CNc2ccc(Cc3c[nH]c4ncccc34)cn2)cc1" . Value?
Reply: 0

Task item: Endpoint output: drug sensitivity score of CC1CCc2cc(F)cc3c(=O)c(C(=O)O)cn1c23 (centres undefined) . Value?
Reply: 0

Task item: Endpoint output: drug sensitivity score of "COc1cc(Br)c(S(=O)(=O)Nc2ccc(Cl)c(O[C@@H]3CCN(C)C3)c2)cc1OC" . Value?
Reply: 0

Task item: Endpoint output: drug sensitivity score of "CC(=O)Nc1cccc2c1c(Sc1ccc(Cl)cc1)c(C)n2CC(=O)O" . Value?
Reply: 0

Task item: Endpoint output: drug sensitivity score of "O=C(CNC(=O)c1ccc(Cl)cc1)NO" . Value?
Reply: 0

Task item: Endpoint output: drug sensitivity score of "COc1cc2c(cc1O)CC[C@@H]1[C@@H]2CC[C@]2(C)[C@@H](O)CC[C@@H]12" . Value?
Reply: 5.9

Task item: Endpoint output: drug sensitivity score of "COc1ccc(-c2coc3cc(O)ccc3c2=O)cc1" . Value?
Reply: 0

====

System: Caco-2
Assay: cell viability relative to DMSO; higher = less toxic
Conditions: 72 h; 1000 nM
readout: cell viability (%)
Answer with a number only, understood to be in %.

C[C@@H]1CC[C@H]2C(C)(C)[C@H]3C[C@@]12CC[C@@]3(C)O | 99.4
C[C@H]1C[C@H]2[C@@H]3CCC4=CC(=O)C=C[C@]4(C)[C@@]3(F)[C@@H](O)C[C@]2(C)[C@@]1(O)C(=O)CO | 99.1
O=C(NC1CCNCC1)[C@@H]1CC[C@@H]2CN1C(=O)N2OS(=O)(=O)O | 94.6
CN1C2C=C(c3sccc3Br)CC1CC2 (stereo not given) | 106

Now examine the next entry.
Task item: Endpoint output: cell viability of "CCC1(CC)C(=O)NC(=O)N(C)C1=O" . Value?
Reply: 102

====

# reported cell viability; entries follow
System: U2OS
Assay: cell viability relative to DMSO; higher = less toxic
Conditions: 72 h; 10 nM
Answer with a number only, understood to be in %.

Would you please look over these solved cases?
CCCCCCNC(=O)n1cc(F)c(=O)[nH]c1=O [Carmofur] | 96.5
Cn1ncc(Cl)c1-c1cc(C(=O)N[C@H](CN)Cc2cccc(F)c2)sc1Cl | 95.6
COc1cc(-c2ncn(/C=C\C(=O)OC(C)C)n2)cc(C(F)(F)F)c1 | 93.7
C/C(=C\c1csc(C)n1)[C@@H]1C[C@@H]2O[C@]2(C)CCC[C@H](C)[C@H](O)[C@@H](C)C(=O)C(C)(C)[C@@H](O)CC(=O)N1 [ixabepilone] | 99.3
Nc1ncnc2c1ncn2[C@@H]1O[C@@H]2COP(=O)(O)O[C@H]2[C@H]1O | 103

Task item: Write down the reported cell viability of CC1(C)[C@H]2CC[C@]1(C)[C@@H](O)[C@H]2O [cis-exo-camphanediol-2,3] , test system: U2OS.
Reply: 106

Task item: Write down the reported cell viability of "N#Cc1c(N)nc(SCc2csc(-c3ccc(Cl)cc3)n2)c(C#N)c1-c1ccc(OCCO)cc1" , test system: U2OS.
Reply: 95.2

Task item: Write down the reported cell viability of "COc1ccc(CCN)cc1OC" , test system: U2OS.
Reply: 96.1

Task item: Write down the reported cell viability of "COC(=O)Nc1ccc2[nH]cc(CCNC(C)=O)c2c1" , test system: U2OS.
Reply: 104

====

Test system: U2OS
Assay: cell viability relative to DMSO; higher = less toxic
Settings: 72 h; 10 nM
# reported cell viability; entries follow
Answer with a number only, understood to be in %.

COc1cc(Br)c(S(=O)(=O)Nc2ccc(Cl)c(O[C@@H]3CCN(C)C3)c2)cc1OC | 97.4

Task item: Endpoint output: cell viability of CCCN(C/C=C/I)[C@H]1CCc2ccc(O)cc2C1 [7-hydroxy-PIPAT] . Value?
Reply: 96.7

Task item: Endpoint output: cell viability of COc1cc([C@@H]2c3cc4c(cc3[C@@H](O[C@@H]3O[C@@H]5CO[C@@H](c6cccs6)O[C@H]5[C@H](O)[C@H]3O)[C@H]3COC(=O)[C@H]23)OCO4)cc(OC)c1O [teniposide] . Value?
Reply: 94.4

Task item: Endpoint output: cell viability of COc1cc(C2Oc3cc([C@H]4Oc5cc(O)cc(O)c5C(=O)[C@@H]4O)ccc3OC2CO)ccc1O (some centres undefined) [silibinin] . Value?
Reply: 103

====

Test system: HepG2
Assay: cell viability relative to DMSO; higher = less toxic
Conditions: 72 h; 100 nM
# reported cell viability; entries follow
Answer with a number only, understood to be in %.

CCCN(CCC)CCc1cccc2c1CC(=O)N2 | 87.7
C[C@H]1C[C@H]2[C@@H]3CCC4=CC(=O)C=C[C@]4(C)[C@@]3(F)[C@@H](O)C[C@]2(C)[C@@]1(O)C(=O)CO | 99.4
Oc1ccc(OCc2ccccc2)cc1 | 109

Task item: Endpoint output: cell viability of "CNC(C)(C)Cc1ccccc1" . Value?
Reply: 106

Task item: Endpoint output: cell viability of OC(c1ccccc1)C1CCN(CCc2ccccc2)CC1 (stereo not drawn) . Value?
Reply: 96.7

Task item: Endpoint output: cell viability of "Nc1c(-c2cccc(C(F)(F)F)c2)nsc1C(=O)O" . Value?
Reply: 92.1

Task item: Endpoint output: cell viability of "Nc1nc(O)c2ncn(CCC(CO)CO)c2n1" . Value?
Reply: 101

Task item: Endpoint output: cell viability of CCCCCCNC(=O)n1cc(F)c(=O)[nH]c1=O [Carmofur] . Value?
Reply: 102

Task item: Endpoint output: cell viability of CCCN(C/C=C/I)[C@H]1CCc2ccc(O)cc2C1 [7-hydroxy-PIPAT] . Value?
Reply: 97.8

Task item: Endpoint output: cell viability of "CC(C)NNC(=O)c1ccncc1" . Value?
Reply: 108

====

System: Calu-3
Assay: cell viability relative to DMSO; higher = less toxic
Conditions: 72 h; 10000 nM
# reported cell viability; entries follow
Answer with a number only, understood to be in %.

Would you please look over these solved cases?
Cc1cccn2c(=O)c(/C=C(\C#N)c3nc4ccccc4s3)c(Oc3ccc(F)cc3)nc12 | 106
Clc1ccc(COC(Cn2ccnc2)c2ccc(Cl)cc2Cl)cc1 (configuration not stated) | 98.5
CCOc1ccc2nc(S(N)(=O)=O)sc2c1 [ethoxzolamide] | 113
O=C(O)CNC(=O)c1c(O)c2ccccc2n(Cc2ccccc2)c1=O | 87.4
FC(F)(F)c1ccc(CNc2ccc(Cc3c[nH]c4ncccc34)cn2)cc1 | 94.7

Task item: Endpoint output: cell viability of C[C@@H]1O[C@@H](O[C@@H]2[C@@H](O)[C@H](OCCc3ccc(O)c(O)c3)O[C@H](CO)[C@H]2OC(=O)/C=C/c2ccc(O)c(O)c2)[C@H](O)[C@H](O)[C@H]1O [verbascoside] . Value?
Reply: 97.1

Task item: Endpoint output: cell viability of CC(C)NC[C@@H](O)c1ccc(O)c(O)c1 (racemic) . Value?
Reply: 98.2

Task item: Endpoint output: cell viability of CC(=O)N[C@H]1[C@H]([C@H](O)[C@H](O)CO)OC(O)(C(=O)O)C[C@@H]1O (mixture of isomers) . Value?
Reply: 90.4

Task item: Endpoint output: cell viability of "CC(C)NNC(=O)c1ccncc1" . Value?
Reply: 99.6

Task item: Endpoint output: cell viability of "CNCCC=C1c2ccccc2C=Cc2ccccc21" . Value?
Reply: 84.8

Task item: Endpoint output: cell viability of O=C(OCC(O)CO)c1ccccc1Nc1ccnc2c(C(F)(F)F)cccc12 (configuration not stated) . Value?
Reply: 81.1

Task item: Endpoint output: cell viability of "CO[C@H]1/C=C/O[C@@]2(C)Oc3c(C)c(O)c4c(O)c(c5c(nc6cc(C)ccn65)c4c3C2=O)NC(=O)/C(C)=C\C=C\[C@H](C)[C@H](O)[C@@H](C)[C@@H](O)[C@@H](C)[C@H](OC(C)=O)[C@@H]1C" . Value?
Reply: 94.6

Task item: Endpoint output: cell viability of "CONC(=N)c1ccc(-c2ccc(-c3ccc(C(=N)NOC)cc3)o2)cc1" . Value?
Reply: 98.5

Task item: Endpoint output: cell viability of "Cc1n[nH]c2ccc(-c3cncc(OC[C@@H](N)Cc4ccccc4)c3)cc12" . Value?
Reply: 41.3
